Values compiled from the RNAGym collection of RNA variant scans (doi:10.7554/elife.80360).

Recorded self-cleavage values for a group of variants are listed next.
B1: Twister Ribozyme (parent)
chain: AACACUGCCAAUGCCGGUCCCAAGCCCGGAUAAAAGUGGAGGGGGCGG

variants of: B1; assay: self-cleavage, relative activity (ratio to wild type); higher = more cleavage; co-transcriptional
quantity: self-cleavage

INSERT INTO measurements (sequence_chain, measured_result) VALUES
  ('AACACUGCCAAUGCCGGUCCCAAACCCGGAUAAAAGUCGAGGGGGCGG', 0.106),
  ('AACACUGCCAAUGCCGGUCCCAAGCCGGGAUAAAAUUGGAGGGGGCGG', 0.0875),
  ('AACACUGCCAAUGCCGGUCGCAAGCCCGGAUAAAAGUGGAGGGGGCGU', 0.12),
  ('AACACUGCCUGUGCCGGUCCCAAGCCCGGAUAAAAGUGGAGGGGGCGG', 1.09),
  ('AACACUGCCAAUACCGGUCCCAAUCCCGGAUAAAAGUGGAGGGGGCGG', 0.13),
  ('AACACUGCCAAUGCCGGUCCCAAGCCCGGAUACAAUUGGAGGGGGCGG', 0.122),
  ('AACACUGUCAAUGCCGGUCCCAAGCACGGAUAAAAGUGGAGGGGGCGG', 0.117),
  ('AAAACUGCCAAUGCCGGUCCCCAGCCCGGAUAAAAGUGGAGGGGGCGG', 0.115),
  ('AACACUGCCAAUGCCGGUCCCAAGCCCGGAUAAAAGGGCAGGGGGCGG', 0.143),
  ('AACACUGCCAAUGCCGGUCCCUAGCCCGGAUAAAAGGGGAGGGGGCGG', 0.554),
  ('AACACUGCCAAUGCCGGUCCCAAGCCCGGAUAAAAGUGAAUGGGGCGG', 0.125),
  ('UACACUCCCAAUGCCGGUCCCAAGCCCGGAUAAAAGUGGAGGGGGCGG', 0.0703),
  ('AACACUGCCAAUGCUGGUCCCAAGCCCGGAUAAAAGUGGAUGGGGCGG', 0.452),
  ('AACAAUGCCAAUGCCGGUCCCAAGCCCGGAUAAAAGUCGAGGGGGCGG', 0.341),
  ('AACACUGCCAAUGCCGGUCCAAAGCCCGGAUAAAAGUGGAGGGGGGGG', 0.173),
  ('AACACCGCCAAUGCCGGUCCCCAGCCCGGAUAAAAGUGGAGGGGGCGG', 0.691);
